Target: UniProtKB P29275
Sequence (P29275 whole entry): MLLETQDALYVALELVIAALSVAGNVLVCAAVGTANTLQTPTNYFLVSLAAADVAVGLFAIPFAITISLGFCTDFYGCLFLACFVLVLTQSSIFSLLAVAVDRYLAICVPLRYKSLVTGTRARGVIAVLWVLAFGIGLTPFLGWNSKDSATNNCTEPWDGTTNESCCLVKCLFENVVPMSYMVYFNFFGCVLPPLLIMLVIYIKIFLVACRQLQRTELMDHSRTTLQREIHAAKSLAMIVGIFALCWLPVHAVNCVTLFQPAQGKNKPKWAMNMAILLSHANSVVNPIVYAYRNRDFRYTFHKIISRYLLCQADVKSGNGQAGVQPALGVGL
Experiment: Displacement of [3H]DPCPX from human Adenosine A2B receptor expressed in HEK293 cells at 1 uM after 30 mins
Format: cell-based
metric name: Activity (%)
Give bare numbers, in %.

{"compound": "CC1=C(C(=O)OC(C)C)C(c2cccs2)CC(=O)N1 (racemic)", "Activity, %": 3}
{"compound": "O=C1NC2=C(C(=O)OC2)C(c2cccs2)N1 (racemic)", "Activity, %": 10}
{"compound": "CC1=C(C(=O)OC(C)C)C(c2ccco2)CC(=O)N1 (racemic)", "Activity, %": 15}
{"compound": "CC1=C(C(=O)OC(C)C)C(c2ccoc2)CC(=O)N1 (racemic)", "Activity, %": 20}
{"compound": "CCN1CC2=C(C1=O)C(c1ccoc1)NC(=O)N2 (racemic)", "Activity, %": 35}

Hi there! I need Activity for each item below, if you can.
1. CC1=C(C(=O)OC(C)C)C(c2ccsc2)CC(=O)N1 (racemic)
2. O=C1NC2=C(C(=O)OC2)C(c2ccoc2)N1 (racemic)
3. CCN1CC2=C(C1=O)C(c1ccsc1)NC(=O)N2 (racemic)

[21, 9, 18]

Hi team, please reply with Activity for each item in this list.
1. CCOC(=O)C1=C(C)Nc2ncnn2C1c1ccco1 (racemic)
2. CCOC(=O)C1=C(C)NC(=O)CC1c1ccsc1 (racemic)
3. CCOC(=O)C1=C(C)Nc2ncnn2C1c1cccs1 (racemic)

3
12
15

* * *

What Activity was measured for each of the following?
Molecular target: Adenosine receptor A1 (Homo sapiens) (UniProt P30542)
Sequence (P30542 whole entry): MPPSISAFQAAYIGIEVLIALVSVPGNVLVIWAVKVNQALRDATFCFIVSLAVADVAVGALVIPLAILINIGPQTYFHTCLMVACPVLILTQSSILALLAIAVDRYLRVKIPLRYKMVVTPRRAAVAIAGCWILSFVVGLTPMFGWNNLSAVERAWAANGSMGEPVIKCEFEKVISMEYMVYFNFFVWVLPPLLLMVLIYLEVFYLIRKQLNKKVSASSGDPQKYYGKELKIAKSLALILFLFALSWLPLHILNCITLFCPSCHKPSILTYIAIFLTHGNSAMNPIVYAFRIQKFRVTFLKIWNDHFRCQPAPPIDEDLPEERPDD
Assay: Displacement of [3H]DPCPX from human Adenosine A1 receptor expressed in CHO cells at 1 uM after 60 mins
Type: cell-based
Numbers only, in %.

{"compound": "CCOC(=O)C1=C(C)NC(=O)CC1c1cccs1 (racemic)", "experimental result": 16}
{"compound": "CCOC(=O)C1=C(C)Nc2nccn2C1c1ccoc1 (racemic)", "experimental result": 2}

For the next question, use this compound.
Looking up CCN1CC2=C(C1=O)C(c1ccco1)NC(=O)N2 (racemic) , I found its Activity recorded as 7

* * *

Target: Adenosine receptor A2a (Homo sapiens) (UniProt P29274)
Sequence (P29274 whole entry): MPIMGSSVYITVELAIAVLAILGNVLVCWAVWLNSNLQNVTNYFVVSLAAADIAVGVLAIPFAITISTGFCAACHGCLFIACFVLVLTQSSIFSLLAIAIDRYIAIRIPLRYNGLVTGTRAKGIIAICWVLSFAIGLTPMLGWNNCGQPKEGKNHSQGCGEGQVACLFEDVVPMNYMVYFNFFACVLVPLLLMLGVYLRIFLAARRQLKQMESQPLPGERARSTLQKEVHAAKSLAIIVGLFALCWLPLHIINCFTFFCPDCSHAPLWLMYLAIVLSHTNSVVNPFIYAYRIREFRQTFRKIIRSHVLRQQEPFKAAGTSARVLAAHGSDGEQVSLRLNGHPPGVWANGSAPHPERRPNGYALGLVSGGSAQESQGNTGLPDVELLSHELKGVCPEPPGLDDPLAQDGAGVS
Experiment: Displacement of [3H]ZM241385 from human Adenosine A2A receptor expressed in HeLa cells at 1 uM after 30 mins
Format: cell-based
Response key: 1 means Activity >= 4%; -1 means Activity < 4%.

Past entries and their recorded results:
{"compound": "CCOC(=O)C1=C(C)Nc2nccn2C1c1ccco1 (racemic)", "target entity": "Adenosine receptor A2a (Homo sapiens) (UniProt P29274)", "label": 1}
{"compound": "CC1=C(C(=O)OC(C)C)C(c2ccco2)CC(=O)N1 (racemic)", "target entity": "Adenosine receptor A2a (Homo sapiens) (UniProt P29274)", "label": 1}
{"compound": "CCOC(=O)C1=C(C)Nc2nc3ccccc3n2C1c1ccco1 (racemic)", "target entity": "Adenosine receptor A2a (Homo sapiens) (UniProt P29274)", "label": 1}
{"compound": "CC1=C(C(=O)OC(C)C)C(c2ccco2)n2ncnc2N1 (racemic)", "target entity": "Adenosine receptor A2a (Homo sapiens) (UniProt P29274)", "label": 1}
{"compound": "CCOC(=O)C1=C(C)Nc2ncnn2C1c1ccco1 (racemic)", "target entity": "Adenosine receptor A2a (Homo sapiens) (UniProt P29274)", "label": 1}
{"compound": "O=C1NC2=C(C(=O)OC2)C(c2cccs2)N1 (racemic)", "target entity": "Adenosine receptor A2a (Homo sapiens) (UniProt P29274)", "label": -1}
{"compound": "CCOC(=O)C1=C(C)Nc2nccn2C1c1ccsc1 (racemic)", "target entity": "Adenosine receptor A2a (Homo sapiens) (UniProt P29274)", "label": -1}
{"compound": "CCN1CC2=C(C1=O)C(c1ccsc1)NC(=O)N2 (racemic)", "target entity": "Adenosine receptor A2a (Homo sapiens) (UniProt P29274)", "label": 1}

Proceed to the following item.
Given the entry O=C1NC2=C(C(=O)OC2)C(c2ccoc2)N1 (racemic) , answer whether its Activity meets or surpasses 4%. -1

* * *

Target: Adenosine receptor A1 (Homo sapiens)
Test: Displacement of [3H]DPCPX from human Adenosine A1 receptor expressed in CHO cells at 1 uM after 60 mins
Type: cell-based
Criterion: Activity strictly less than 3%. Met: Yes. Not met: No.

// below: answered molecules
{"molecule": "CCOC(=O)C1=C(C)Nc2ncnn2C1c1ccoc1 (racemic)", "label": "Yes"}
{"molecule": "CCN1CC2=C(C1=O)C(c1cccs1)NC(=O)N2 (racemic)", "label": "No"}
{"molecule": "CC1=C(C(=O)OC(C)C)C(c2ccoc2)n2c(nc3ccccc32)N1 (racemic)", "label": "No"}
{"molecule": "CCOC(=O)C1=C(C)NC(=O)NC1c1cccs1 (stereo unspecified)", "label": "Yes"}
{"molecule": "CCOC(=O)C1=C(C)NC(=O)CC1c1ccoc1 (racemic)", "label": "No"}

Is it true that Activity reported for CC1=C(C(=O)OC(C)C)C(c2ccoc2)n2ncnc2N1 (racemic) is less than 3%? Yes

Is it true that Activity reported for CC1=C(C(=O)OC(C)C)C(c2cccs2)CC(=O)N1 (racemic) is less than 3%? Yes

* * *

Target: Adenosine receptor A3 (Homo sapiens) (UniProt P0DMS8)
Sequence (P0DMS8 whole entry): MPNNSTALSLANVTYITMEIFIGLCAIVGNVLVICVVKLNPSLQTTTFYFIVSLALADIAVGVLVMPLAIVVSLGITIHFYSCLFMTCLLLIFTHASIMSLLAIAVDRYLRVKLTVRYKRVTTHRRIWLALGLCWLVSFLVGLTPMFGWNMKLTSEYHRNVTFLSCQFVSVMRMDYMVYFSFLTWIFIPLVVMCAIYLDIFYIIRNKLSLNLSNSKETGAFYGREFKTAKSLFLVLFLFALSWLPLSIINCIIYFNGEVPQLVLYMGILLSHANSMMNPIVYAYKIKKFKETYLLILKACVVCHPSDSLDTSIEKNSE
Assay: Displacement of [3H]NECA from human Adenosine A3 receptor expressed in HeLa cells at 1 uM after 180 mins
metric name: Activity (%)
One number for each entry, in %.

These recorded examples may help you get a feel for the data.
{"molecule": "CC1=C(C(=O)OC(C)C)C(c2ccsc2)n2ccnc2N1 (racemic)", "Activity / %": 1}
{"molecule": "CCOC(=O)C1=C(C)Nc2nc3ccccc3n2C1c1ccsc1 (racemic)", "Activity / %": 2}
{"molecule": "CCOC(=O)C1=C(C)Nc2nccn2C1c1ccsc1 (racemic)", "Activity / %": 2}
{"molecule": "CC1=C(C(=O)OC(C)C)C(c2ccsc2)CC(=O)N1 (racemic)", "Activity / %": 20}
{"molecule": "CCOC(=O)C1=C(C)NC(=O)NC1c1cccs1 (configuration not stated)", "Activity / %": 1}

The following molecules each have a reported value; give each one's Activity.
1. CC1=C(C(=O)OC(C)C)C(c2ccsc2)n2ncnc2N1 (racemic)
2. CC1=C(C(=O)OC(C)C)C(c2cccs2)n2c(nc3ccccc32)N1 (racemic)
3. CC1=C(C(=O)OC(C)C)C(c2ccco2)NC(=O)N1 (configuration not stated)
4. CCOC(=O)C1=C(C)Nc2nccn2C1c1ccoc1 (racemic)
5. CC1=C(C(=O)OC(C)C)C(c2ccco2)n2c(nc3ccccc32)N1 (racemic)
6. CCOC(=O)C1=C(C)NC(=O)NC1c1ccco1 (configuration not stated)
7. CC1=C(C(=O)OC(C)C)C(c2cccs2)CC(=O)N1 (racemic)

1. 5
2. 3
3. 1
4. 3
5. 2
6. 2
7. 22

For each entry beneath this line, provide reported Activity.
1. O=C1NC2=C(C(=O)OC2)C(c2ccsc2)N1 (racemic)
2. CC1=C(C(=O)OC(C)C)C(c2ccoc2)CC(=O)N1 (racemic)
3. O=C1NC2=C(C(=O)OC2)C(c2ccoc2)N1 (racemic)
4. CC1=C(C(=O)OC(C)C)C(c2cccs2)NC(=O)N1 (configuration not stated)
5. CCOC(=O)C1=C(C)Nc2ncnn2C1c1ccsc1 (racemic)

1: 2; 2: 24; 3: 1; 4: 14; 5: 2

# batch size: 5; output Activity per entry
1. CC1=C(C(=O)OC(C)C)C(c2ccoc2)n2c(nc3ccccc32)N1 (racemic)
2. CCOC(=O)C1=C(C)Nc2nccn2C1c1ccco1 (racemic)
3. CCOC(=O)C1=C(C)NC(=O)NC1c1ccsc1 (configuration not stated)
4. CCOC(=O)C1=C(C)Nc2nc3ccccc3n2C1c1cccs1 (racemic)
5. CCOC(=O)C1=C(C)Nc2ncnn2C1c1ccco1 (racemic)

1. 2
2. 6
3. 24
4. 1
5. 4

* * *

Molecular target: Adenosine receptor A3 (Homo sapiens) (UniProt P0DMS8)
Test: Displacement of [3H]NECA from human Adenosine A3 receptor expressed in HeLa cells at 1 uM after 180 mins
metric name: Activity (%)
Answers are plain numbers, in %.

Below are worked cases with known answers.
{"compound": "CC1=C(C(=O)OC(C)C)C(c2ccsc2)NC(=O)N1 (stereo not drawn)", "Activity (%)": 1}
{"compound": "CC1=C(C(=O)OC(C)C)C(c2ccoc2)n2ccnc2N1 (racemic)", "Activity (%)": 10}

Let us move to another entry and its Activity.
Just so you know, measured Activity for O=C1NC2=C(C(=O)OC2)C(c2cccs2)N1 (racemic) came out at 1

* * *

Target: Adenosine receptor A1 (Homo sapiens)
Experiment: Displacement of [3H]DPCPX from human Adenosine A1 receptor expressed in CHO cells at 1 uM after 60 mins
Format: cell-based
One threshold, 8%, splits the recorded Activity values: lower ones are criterion met, equal or higher ones are criterion not met.

Solved cases below.
{"compound": "CC1=C(C(=O)OC(C)C)C(c2ccco2)n2c(nc3ccccc32)N1 (racemic)", "label": "criterion not met"}
{"compound": "CCOC(=O)C1=C(C)Nc2nccn2C1c1ccsc1 (racemic)", "label": "criterion met"}

Lab note: Activity threshold 8%. Does this compound come in strictly under it? CC1=C(C(=O)OC(C)C)C(c2ccco2)CC(=O)N1 (racemic) criterion not met

Find out if reported Activity for CCOC(=O)C1=C(C)NC(=O)CC1c1ccsc1 (racemic) is less than 8% criterion met
